Taken from the supplement of paper PMC9112550.

// reported shrunken log2 fold change per item
system: Escherichia coli TOP10; test: shrunken log2 fold change of peptide-encoding DNA abundance (4.5 h post-induction vs induction); higher = less antimicrobial activity (less host growth inhibition); conditions: time post-induction: 4.5 h; library: site-saturation at positions 5, 18, 19, 20;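 further: peptides expressed intracellularly from a pBAD plasmid library in pooled LB shake-flask culture, induced with 0.3% L-arabinose, DNA abundance read by NGS, three biological replicates, DESeq2 with apeglm shrinkage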
Please state the value as a number alone, without comment.

Please review the entries below; each comes with its answer.
>>> numericresult("RRIRHRPPRLPRPRPRPCFSPRP")
0.0626
>>> numericresult("RRIRNRPPRLPRPRPRPSDCPRP")
-0.483
>>> numericresult("RRIRQRPPRLPRPRPRPGRVPRP")
0.422

Qu. What value of shrunken log2 fold change has been reported for the following sequence? `RRIRLRPPRLPRPRPRPVSYPRP`
Ans. -0.0976

Qu. What value of shrunken log2 fold change has been reported for the following sequence? `RRIRFRPPRLPRPRPRPHPKPRP`
Ans. 0.827

Qu. What value of shrunken log2 fold change has been reported for the following sequence? `RRIRRRPPRLPRPRPRPHTFPRP`
Ans. -0.108

Qu. What value of shrunken log2 fold change has been reported for the following sequence? `RRIRTRPPRLPRPRPRPLPEPRP`
Ans. 0.126

Qu. What value of shrunken log2 fold change has been reported for the following sequence? `RRIRPRPPRLPRPRPRPYELPRP`
Ans. -0.0423

Qu. What value of shrunken log2 fold change has been reported for the following sequence? `RRIRVRPPRLPRPRPRPNNYPRP`
Ans. -0.726

Qu. What value of shrunken log2 fold change has been reported for the following sequence? `RRIRTRPPRLPRPRPRPMEIPRP`
Ans. -0.00196

Qu. What value of shrunken log2 fold change has been reported for the following sequence? `RRIRFRPPRLPRPRPRPWDAPRP`
Ans. -0.12

Qu. What value of shrunken log2 fold change has been reported for the following sequence? `RRIRLRPPRLPRPRPRPADMPRP`
Ans. -0.445

Qu. What value of shrunken log2 fold change has been reported for the following sequence? `RRIRHRPPRLPRPRPRPHHFPRP`
Ans. -0.0916

Qu. What value of shrunken log2 fold change has been reported for the following sequence? `RRIRARPPRLPRPRPRPEGVPRP`
Ans. 1.1

Qu. What value of shrunken log2 fold change has been reported for the following sequence? `RRIRYRPPRLPRPRPRPNGQPRP`
Ans. -0.0885

Qu. What value of shrunken log2 fold change has been reported for the following sequence? `RRIRERPPRLPRPRPRPNHMPRP`
Ans. -0.31

Qu. What value of shrunken log2 fold change has been reported for the following sequence? `RRIRKRPPRLPRPRPRPHHHPRP`
Ans. -0.208

Qu. What value of shrunken log2 fold change has been reported for the following sequence? `RRIRTRPPRLPRPRPRPTYLPRP`
Ans. -0.827

Qu. What value of shrunken log2 fold change has been reported for the following sequence? `RRIRCRPPRLPRPRPRPTNWPRP`
Ans. -0.0072

Qu. What value of shrunken log2 fold change has been reported for the following sequence? `RRIRFRPPRLPRPRPRPWRCPRP`
Ans. 0.174

Qu. What value of shrunken log2 fold change has been reported for the following sequence? `RRIRLRPPRLPRPRPRPIIAPRP`
Ans. -0.0536
